# System: C. parvum HNJ-1 strain
# assayMethodText: In vitro C. parvum growth inhibition assay (Sporo-Glo staining, fluorescence microscopy count in infected HCT-8 cells)
# Format: cell-based, Cryptosporidium parvum
# testConditions: Cryptosporidium parvum, HCT-8; C. parvum HNJ-1, 0.008–1 μM, 45 h, mean of three experiments; read-out: EC50 value
reportedEndpoint: EC50

Qu. C. parvum HNJ-1 strain / EC50 / C[C@H](C[C@H](O)[C@@H](O)C(C)(C)O)C1=C2C[C@H](O)[C@H]3[C@@]4(C)CCC(=O)C(C)(C)[C@@H]4CC[C@]3(C)[C@@]2(C)CC1 : value?
Ans. 123 nM
